Molecular target: T1, human IGSF8 expressed on the cell surface (human, UniProt Q969P0 28-613)
T1 construct: whole, on cells; also called human IGSF8 on CT26 cells; IGSF8 on MC38 cells
T1 sequence (looked up): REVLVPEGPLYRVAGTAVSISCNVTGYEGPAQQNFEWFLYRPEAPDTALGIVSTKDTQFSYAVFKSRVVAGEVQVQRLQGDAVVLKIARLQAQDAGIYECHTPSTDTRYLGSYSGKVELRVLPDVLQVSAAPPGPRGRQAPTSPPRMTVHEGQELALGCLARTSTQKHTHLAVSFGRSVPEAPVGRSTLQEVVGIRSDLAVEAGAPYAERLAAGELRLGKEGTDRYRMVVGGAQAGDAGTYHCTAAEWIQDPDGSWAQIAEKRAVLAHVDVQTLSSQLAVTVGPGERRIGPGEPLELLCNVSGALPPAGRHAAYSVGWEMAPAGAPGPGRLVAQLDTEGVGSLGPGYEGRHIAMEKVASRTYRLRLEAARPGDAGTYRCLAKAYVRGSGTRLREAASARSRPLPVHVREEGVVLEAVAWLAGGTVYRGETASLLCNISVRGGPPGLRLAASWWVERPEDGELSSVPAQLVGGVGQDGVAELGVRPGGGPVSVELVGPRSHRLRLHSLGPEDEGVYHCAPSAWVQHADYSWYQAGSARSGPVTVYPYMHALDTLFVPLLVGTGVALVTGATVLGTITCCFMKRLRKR
Assay: FACS on CT26 cells with forced surface expression of human IGSF8
Method: For antibody binding assays based on cell-expressed antigens, 100,000 cells overexpressing the antigen (either the full-length IGSF8 or the D1 domain thereof) were washed with PBS buffer containing 2% FBS, and then incubated with 100 μL of antibodies or IgG of different concentrations for 30 minutes on ice. […] Cells were washed twice with wash buffer and analyzed on a FACS analyzer (CytoFlex, Beckman).
Endpoint: pEC50
Just so you know, pEC50 here is -log10 of the concentration in molar units; reply with that number alone.

Inquiry: For the binder Antibody C32 (B104) (antibody, IgG1, V domains shown, also called mAb-B104 (C32)) VH: QVQLVQSGAEVKRPGASVKVSCKASGYTFTNDIIHWVRQAPGQRLEWMGWINAGYGNTQYSQNFQDRVSITRDTSASTAYMELISLRSEDTAVYYCARGYYRSPTWFDWWGQGTLVTVSS VL: ETTLTQSPSSLSASVGDRVTITCRASQSISSWLAWYQQKPGKAPKLLIYKASSLESGVPSRFSGSGSGTEFTLTISSLQPDDFATYYCQQYGDYPYTFGQGTKLEIKR , give its reported pEC50.
Reply text: 8.27

Inquiry: For the binder Antibody C33 (1C2) (antibody, V domains shown, also called mAb-1C2 (C33)) VH: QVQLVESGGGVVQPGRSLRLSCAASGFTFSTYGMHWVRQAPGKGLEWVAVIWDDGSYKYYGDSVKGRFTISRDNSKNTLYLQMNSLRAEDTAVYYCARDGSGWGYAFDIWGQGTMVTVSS VL: DIQLTQSPSSLSASVGDRVTITCQASQDISEYLNWYQHKPGKAPNPLVFDAANLETGVPPRFSATGSGTDFSLTITSLQPEDFATYYCQQYDSFPYTFGQGTRLDIK , give its reported pEC50.
Reply text: 8.21
